I'd appreciate it if you could supply melting point values for the items below.

> print(dat)
                           molecule         result
1  CN(CC(=O)O)c1ccc(C(F)(F)F)cc1C=O  106 to 108 °C

Would you mind giving melting point for every molecule in the list below?
1. Cc1nnnn1C(Cc1ccccc1)C(=O)O (stereo not drawn)
2. Cc1ccc(-n2c(N)nc3cc(Br)ccc32)cc1
3. CCOC(=O)/C(C#N)=C\Nc1ccc(CC)cc1
4. CC(C)(C)c1ccc(CCCC(=O)O)cc1
5. OCc1cc2ccccc2nc1Cl
6. CNC(=S)NCc1ccco1
7. CC(C)Oc1ccc(C(O)CN2CCN(C)CC2)cc1 (stereo not drawn)

Result:
1: 167 to 169 °C; 2: 194 to 196 °C; 3: 97 to 99 °C; 4: 53 to 55 °C; 5: 163 to 165 °C; 6: 74 to 76 °C; 7: 103 to 105 °C

Would you mind giving melting point for every molecule in the list below?
1. CC(Cl)C(=O)N1CC(=O)Nc2ccccc21 (stereo not drawn)
2. Nc1ccc(OCCO)nc1
3. Oc1cccc(Oc2cccnc2)c1
4. ClCc1nc2cc(Cl)ccc2n1Cc1ccccc1

Result:
["139 to 141 °C", "63 to 65 °C", "109 to 111 °C", "105 to 115 °C"]

Would you mind giving melting point for every molecule in the list below?
1. Oc1ccc(Sc2ccncc2)cc1
2. ClCc1coc(-c2ccc(Br)cc2)n1
3. O=C(O)CSc1ccc(F)c(F)c1
4. O=C(O)c1c[nH]nc1-c1ccccc1F
5. O=C(O)c1ccc(F)c(COCC2CC2)c1
6. CCCNc1ccc(S(N)(=O)=O)cc1N
7. c1nc(N2CCNCC2)c2ccsc2n1

Result:
1: 239 to 241 °C; 2: 112 to 114 °C; 3: 62 to 64 °C; 4: 288 to 290 °C; 5: 69 to 71 °C; 6: 104 to 106 °C; 7: 71 to 73 °C
